- assayName: in vitro
- conditionContext: rat, LC50 NRKE
parameter: CC50 at 5 days (nM)
Number in nM, nothing else.

Answered examples (3):
> print(dat)
                       molecularstring  resultvalue
1    CCCC(=O)NC1=CC(=O)c2ccc(C)nc2C1=O         2000
2      CC(=O)NC1=CC(=O)c2ccc(C)nc2C1=O         2400
3  CCCC(=O)NC1=CC(=O)c2ccc(C=O)nc2C1=O         3000

QUERY: Give the measured CC50 at 5 days of "COC(=O)c1nc(-c2ccc3c(n2)C(=O)C(NC(C)=O)=CC3=O)c2[nH]c3ccccc3c2c1C" .
RESULT: 900

QUERY: // returns reported CC50 at 5 days for input "Cc1ccc2c(n1)C(=O)C(NC(=O)CCl)=CC2=O"
RESULT: 3200

QUERY: Consider the compound "O=Cc1ccc2c(n1)C(=O)C(NC(=O)CCl)=CC2=O" and give its measured CC50 at 5 days.
RESULT: 3600

Reference source: patent US6444684B1
